target: UniProtKB O14965; assay: Inhibition of human recombinant AurKA after 4 hrs by ADP-Glo assay
Sequence (O14965 whole entry): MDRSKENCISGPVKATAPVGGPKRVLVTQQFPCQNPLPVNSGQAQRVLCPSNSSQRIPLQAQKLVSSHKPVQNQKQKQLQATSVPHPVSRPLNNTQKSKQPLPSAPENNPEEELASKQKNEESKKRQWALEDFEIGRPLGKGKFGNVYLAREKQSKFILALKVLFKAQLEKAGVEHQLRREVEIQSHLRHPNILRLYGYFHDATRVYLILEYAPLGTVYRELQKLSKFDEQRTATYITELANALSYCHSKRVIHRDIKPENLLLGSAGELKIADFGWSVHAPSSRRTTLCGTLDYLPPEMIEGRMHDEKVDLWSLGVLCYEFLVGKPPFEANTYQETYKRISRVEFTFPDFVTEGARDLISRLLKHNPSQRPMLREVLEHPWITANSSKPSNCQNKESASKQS
pIC50: −log10 of the molar value.
Metric Name: pIC50

* Cc1cc(Nc2cc(N3CCN(C)CC3)nc(Nc3ccc(NC(=O)C4CC4)cc3)n2)n[nH]1 | 6.53

P. Cc1cc(Nc2cc(N3CCOCC3)nc(Nc3ccc(NC(=O)C4CC4)cc3)n2)n[nH]1
Q. Cc1cc(Nc2nc(Sc3ccc(NC(=O)C4CCCCC4)cc3)nc(N3CCN(C)CC3)n2)n[nH]1
Q. Given P and given Q , which shows the smaller recorded pIC50? I would appreciate it if you answered with the label of your choice.
A. P

---

Entries and their inhibition at 24 h, 3 µM values follow.
tested on: Aurk (Aurora kinase); assay: Inhibition of Aurk in mouse L929sA cells transfected with human Fas assessed as reduction in cell growth at 3 uM after 24 hrs in presence of TNF by Hoechst 33342 staining-based microscopic assay relative to control

* Cc1[nH]nc(Nc2cc(N3CCCCC3)nc(Nc3ccc(NC(=O)C4CC4)cc3)n2)c1C | < 50%
* Cc1cc(Nc2nc(Sc3ccc(NC(=O)C4CC4)cc3)nc(N3CCOCC3)n2)n[nH]1 | < 50%
* Cc1cc(Nc2nc(Nc3ccc(NC(=O)C4CCCCC4)cc3)nc(N3CCN(C)CC3)n2)n[nH]1 | < 50%
* Cc1cc(Nc2nc(Nc3ccc(NC(=O)C4CC4)cc3)nc(N3CCN(C)CC3)n2)n[nH]1 | < 50%
* Cc1[nH]nc(Nc2cc(N3CCCCC3)nc(Nc3ccc(NC(=O)C4CCCCC4)cc3)n2)c1C | < 50%

Now turn to the next compound.
The value of inhibition at 24 h, 3 µM measured for the compound `Cc1[nH]nc(Nc2nc(Nc3ccc(NC(=O)C4CC4)cc3)nc(N3CCCCC3)n2)c1C` turned out to be < 50%

---

system: Aurk (Aurora kinase); assay: Inhibition of Aurk in mouse L929sA cells transfected with human Fas assessed as increase in nuclear area at 3 uM after 24 hrs in presence of TNF by Hoechst 33342 staining-based microscopic assay relative to control; type: cell-based
inhibition at 24 h, 3 µM values for the molecules below.

• Cc1[nH]nc(Nc2nc(Sc3ccc(NC(=O)C4CCCCC4)cc3)nc(N3CCOCC3)n2)c1C = < 50%
• CCN1CCN(c2cc(Nc3n[nH]c(C)c3C)nc(Sc3ccc(NC(=O)C4CC4)cc3)n2)CC1 = < 50%
• Cc1cc(Nc2cc(N3CCCCC3)nc(Nc3ccc(NC(=O)C4CC4)cc3)n2)n[nH]1 = < 50%

Read the next record carefully.
GET /value?item= `Cc1cc(Nc2nc(Nc3ccc(NC(=O)C4CC4)cc3)nc(N3CCN(C)CC3)n2)n[nH]1` &field=inhibition at 24 h, 3 µM returns < 50%

---

tested on: Aurk (Aurora kinase); assay: Inhibition of Aurk in mouse L929sA cells transfected with human Fas assessed as reduction in cell growth at 3 uM after 24 hrs in presence of TNF by Hoechst 33342 staining-based microscopic assay relative to control
Listed here: items and their measured inhibition at 24 h, 3 µM.

Here are 2 compounds together with their reported answers.
* Cc1[nH]nc(Nc2cc(N3CCCCC3)nc(Sc3ccc(NC(=O)C4CCCCC4)cc3)n2)c1C | < 50%
* Cc1[nH]nc(Nc2cc(N3CCN(C)CC3)nc(Nc3ccc(NC(=O)C4CCCCC4)cc3)n2)c1C | < 50%

Query `Cc1[nH]nc(Nc2cc(N3CCOCC3)nc(Sc3ccc(NC(=O)C4CCCCC4)cc3)n2)c1C` yields inhibition at 24 h, 3 µM of < 50%
